Attribute: EC50
System: JAK1-dependent STAT6 phosphorylation downstream of IL-13 stimulation in BEAS-2B human bronchial epithelial cells
Assay: JAK1 pathway assay in BEAS-2B cells (IL-13-pSTAT6, MSD)
Format: cell-based
Conditions: read-out: IL13-pSTAT6 EC50 (uM)_BEAS-2B
The answer is to be given in µM; state only the numeric part.

Example compounds with recorded EC50:
INSERT INTO assay_data (structure_smiles_string, measurement) VALUES
  ('N#CC1CN(C2CCN(C(=O)Cn3cc(NC(=O)c4cnn5cccnc45)c(-c4cc(Cl)ccc4OC(F)F)n3)CC2)C1', 0.0121),
  ('O=C(Nc1cn(CC(=O)N2C[C@H]3CN(CC4CCCCC4)C[C@H]3C2)nc1-c1cc(Cl)ccc1OC(F)F)c1cnn2cccnc12', 0.0388),
  ('CN1CCC(COC(=O)C2CCN(C(=O)Cn3cc(NC(=O)c4cnn5cccnc45)c(-c4cc(Cl)ccc4OC(F)F)n3)CC2)CC1', 0.0241),
  ('O=C1CN(C2CCN(C(=O)Cn3cc(NC(=O)c4cnn5cccnc45)c(-c4cc(Cl)ccc4OC(F)F)n3)CC2)CCN1', 0.172),
  ('N#CC1(NC2CCN(C(=O)Cn3cc(NC(=O)c4cnn5cccnc45)c(-c4cc(Cl)ccc4OC(F)F)n3)CC2)CC1', 0.0103);

What the record says about `O=C(Nc1cn(CC(=O)N2CCC(CN3CCOCC3)CC2)nc1-c1cc(Cl)ccc1OC(F)F)c1cnn2cccnc12` : EC50 is 0.012

* * *

Target: isolated recombinant JAK1 kinase domain (Homo sapiens (Human), UniProt P23458)
Sequence (P23458 875-1153): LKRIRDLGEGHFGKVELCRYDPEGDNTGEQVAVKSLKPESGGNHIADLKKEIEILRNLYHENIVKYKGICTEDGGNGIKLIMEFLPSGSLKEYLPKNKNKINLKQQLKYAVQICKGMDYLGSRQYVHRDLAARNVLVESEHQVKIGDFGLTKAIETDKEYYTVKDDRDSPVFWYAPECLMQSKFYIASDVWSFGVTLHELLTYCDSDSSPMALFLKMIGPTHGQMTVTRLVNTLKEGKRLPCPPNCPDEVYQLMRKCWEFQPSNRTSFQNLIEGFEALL
Test: JAK1 enzyme assay (Caliper LabChip, peptide phosphorylation)
Assay type: biochemical
Settings: isolated recombinant JAK1 kinase domain, 25 μM ATP
pKi: −log10 of the molar value.
Rule: yes (1) for pKi not less than 9, no (0) for anything less.

INSERT INTO results (molecule, label_value) VALUES
  ('O=C(Nc1cn(CC(=O)N2CCOC(CO)C2)nc1-c1cc(Cl)ccc1OC(F)F)c1cnn2cccnc12 (stereo not shown)', 'yes (1)');

q: Record `O=C(Nc1cn(CCNCc2ccccc2O)nc1-c1cc(Cl)ccc1OC(F)F)c1cnn2cccnc12` ; criterion: pKi no lower than 9. Met?
a: yes (1)

q: Record `CN(C)C[C@H]1CCCN1C(=O)Cn1cc(NC(=O)c2c(N)nn3cccnc23)c(-c2cc(Cl)ccc2OC(F)F)n1` ; criterion: pKi no lower than 9. Met?
a: no (0)

q: Record `O=C(Nc1cn(C2CCN(CCCN3CCSCC3)CC2)nc1-c1cc(Cl)ccc1OC(F)F)c1cnn2cccnc12` ; criterion: pKi no lower than 9. Met?
a: no (0)

q: Record O=C1CCC(CN2CCN(C(=O)Cn3cc(NC(=O)c4cnn5cccnc45)c(-c4cc(Cl)ccc4OC(F)F)n3)CC2)O1 (stereo not shown) ; criterion: pKi no lower than 9. Met?
a: yes (1)

q: Record `O=C(Nc1cn(CC(=O)N2CCN(CC3CC3)CC2)nc1-c1cc(Cl)ccc1OC(F)F)c1cnn2cccnc12` ; criterion: pKi no lower than 9. Met?
a: yes (1)

* * *

Biological target: isolated recombinant JAK1 kinase domain (Homo sapiens (Human), UniProt P23458)
Assay: JAK1 enzyme assay (Caliper LabChip, peptide phosphorylation)
Type: biochemical
Details: isolated recombinant JAK1 kinase domain, 25 μM ATP
Attribute: pKi
FYI, pKi means -log10 of a concentration in mol per litre.

Example compounds with recorded pKi:
INSERT INTO assay_data (compound, measurement) VALUES
  ('CN1CCN(C(=O)Cn2cc(NC(=O)c3c(N)nn4cccnc34)c(-c3cc(Cl)ccc3OC(F)F)n2)CC1 [Example 243]', 9.31),
  ('O=C(Nc1cn(CC(=O)N2CCC[C@H]2C(O)CO)nc1-c1cc(Cl)ccc1OC(F)F)c1cnn2cccnc12 (some centres unmarked) [Example 267]', 9.18),
  ('CN(CCC#N)C1CCN(C(=O)Cn2cc(NC(=O)c3cnn4cccnc34)c(-c3cc(Cl)ccc3OC(F)F)n2)CC1 [Example 63]', 9.47);

What the record says about CN1CC2CN(C(=O)Cn3cc(NC(=O)c4c(N)nn5cccnc45)c(-c4cc(Cl)ccc4OC(F)F)n3)CC2C1 (centres unmarked) [Example 9] : pKi is 9.15

What the record says about Nc1nn2cccnc2c1C(=O)Nc1cn(C2CCN(Cc3ccccc3)CC2)nc1-c1cc(Cl)ccc1OC(F)F [Example 178] : pKi is 8.91

What the record says about CN(CCOc1ccc(Br)cc1)C1CCN(C(=O)Cn2cc(NC(=O)c3cnn4cccnc34)c(-c3cc(Cl)ccc3OC(F)F)n2)CC1 [Example 104] : pKi is 9.03

What the record says about O=C(O)CN(CCn1cc(NC(=O)c2cnn3cccnc23)c(-c2cc(Cl)ccc2OC(F)F)n1)Cc1cccnc1 [Example 363] : pKi is 8.38

What the record says about O=C(Nc1cn(CC(=O)N2CCC3(CCN(CC4CCN(C(=O)OCc5ccccc5)CC4)C3)CC2)nc1-c1cc(Cl)ccc1OC(F)F)c1cnn2cccnc12 [Example 226] : pKi is 9.39

What the record says about CN1CC2(CCN(C(=O)Cn3cc(NC(=O)c4cnn5cccnc45)c(-c4cc(Cl)ccc4OC(F)F)n3)CC2)C1 [Example 218] : pKi is 9.00

What the record says about O=C(Nc1sc(-c2ccc(CN3CC(F)C3)cc2)nc1-c1cc(Cl)ccc1OC(F)F)c1cnn2cccnc12 [Example 256] : pKi is 8.88

What the record says about CN1C[C@@H]2CN(Cc3nc(-c4cc(Cl)ccc4OC(F)F)c(NC(=O)c4cnn5cccnc45)s3)C[C@@H]2C1 [Example 262] : pKi is 8.23

What the record says about N#CCCNC1CCC(=CCn2cc(NC(=O)c3cnn4cccnc34)c(-c3cc(Cl)ccc3OC(F)F)n2)CC1 (centres unmarked) [Example 421] : pKi is 9.19

What the record says about COCCCN1C[C@@H]2CN(C(=O)Cn3cc(NC(=O)c4cnn5cccnc45)c(-c4cc(Cl)ccc4OC(F)F)n3)C[C@@H]2C1 [Example 38] : pKi is 9.06
